Listed here: items and their measured BI.
Test: Blocker Index (BI) assigned by perfumers/expert graders on isovaleric acid swatches
Design: species or system human; key: BI odor strength 0 (lowest, clean swatch) to 3 (highest)
Conditions: Conc 50 ppm test material on isovaleric acid swatch
readout name: BI

CCCCCCCCCCCC(=O)OCC [Material 391] ... 2.2
CC1(C)CCc2ccc(CCC=O)cc21 [Material 261] ... 1.3
CC(=O)OCCCCCCC(C)C [Material 204] ... 2.7

---

Experiment: Blocker Index (BI) assigned by perfumers/expert graders on isovaleric acid swatches
Design: species or system human; key: BI odor strength 0 (lowest, clean swatch) to 3 (highest)
Conditions: Conc 50 ppm test material on isovaleric acid swatch
Listed here: items and their measured BI.
readout name: BI

CC1(C)C2CCC3(C2)C1C(=O)CCC3(C)C (stereo not drawn) ... 2.3
CC(=O)OC1CC2CC1C1CC=CC21 (stereo not drawn) ... 2.0
C=CC(C)=CCC=C(C)C ... 2.8
COC(=O)OC1CC/C=C\CCC1 (stereo not drawn) ... 2.7
CC(C)(C)C1CCCCC1 ... 2.0
CCCCCCCCCCCO ... 2.3
CCOC(=O)OC1C(C)CCC(C)C1C (stereo not drawn) ... 2.6
CCC(O)COC1CCCCC1C(C)(C)C (stereo not drawn) ... 2.0
CCCCCCCCCCCCO ... 2.3
C=C1CCC2OC2(C)CCC2C1CC2(C)C (stereo not drawn) ... 2.3
CC(CCO)CCc1ccccc1 (stereo not drawn) ... 1.7
O=C1CCC2CCCCC2O1 (stereo not drawn) [3,4,4a,5,6,7,8,8a-octahydrochromen-2-one] ... 2.0

---

Experiment: Blocker Index (BI) assigned by perfumers/expert graders on isovaleric acid swatches
Set-up: species or system human; key: BI odor strength 0 (lowest, clean swatch) to 3 (highest)
Details: Conc 10 ppm test material on isovaleric acid swatch
Excerpt: Blocker materials suitable for use in consumer products of the present invention are chosen for their ability to decrease malodor, while not interfering with perception of a fragrance. Material selection is done by assigning two indices to a test sample material from two reference scales in order to rank odor strengths. The two reference scales are the Fragrance Fidelity Index (FFI) scale and the Blocker Index (BI) scale. […]
Listed here: items and their measured BI.
readout name: BI

CC(=O)OCCCCCCC(C)C ... 2.0
COC(=O)OC1CC/C=C\CCC1 (stereo not shown) ... 2.0
CC(CCO)CCc1ccccc1 (stereo not shown) ... 2.3
CC(=O)OC1CC2CC1C1CC=CC21 (stereo not shown) ... 2.0
CCC(O)COC1CCCCC1C(C)(C)C (stereo not shown) ... 2.3
CCCCCCCCCCCCCCCC(=O)OC ... 2.0
CC1(C)CCc2ccc(CCC=O)cc21 ... 1.8
CC1(C)C2CCC3(C2)C1C(=O)CCC3(C)C (stereo not shown) ... 1.5
CC(C)(C)C1CCCCC1 ... 2.0
O=C1CCC2CCCCC2O1 (stereo not shown) [3,4,4a,5,6,7,8,8a-octahydrochromen-2-one] ... 2.0
